ENDPOINT: Kd

Item Cc1cc(Nc2nc(C(O)c3ccc(F)cc3)nc3ccsc23)n[nH]1 (racemic) was tested on JAK2 (Homo sapiens, UniProt O60674); the reported Kd is ≤ 1 nM

# Kd measured on JAK2 (Homo sapiens, UniProt O60674) for item Cc1cc(Nc2nc(C(=O)c3ccc(F)cc3)nc3cc(C(C)(C)C)sc23)n[nH]1 = 1 to 10 nM

Record for Cc1cc(Nc2nc(C(O)c3ccc(F)cc3)nc3cscc23)n[nH]1 (racemic) under target or system JAK2 (Homo sapiens, UniProt O60674): Kd reported as ≤ 1 nM

Case Cc1csc2c(Nc3cc[nH]n3)nc(C(O)c3ccc(F)cc3)nc12 (stereo not drawn) , JAK2 (Homo sapiens, UniProt O60674), Kd recorded as 1 to 10 nM

Item Cc1cc(Nc2nc(C(O)c3ccc(F)cc3)nc3cc(C(C)(C)C)sc23)n[nH]1 (stereo not drawn) ; assay system JAK2 (Homo sapiens, UniProt O60674); Kd reported as ≤ 1 nM

The observed Kd for CC(C)(C)c1cc2nc(C(=O)c3ccc(F)cc3)nc(Nc3cc[nH]n3)c2s1 when tested with JAK2 (Homo sapiens, UniProt O60674) stands at 1 to 10 nM
